biological target: UniProtKB P00734; test: Inhibition of thrombin (unknown origin) using CH3SO2-D-Cha-Gly-Arg-pNA.AcOH as substrate measured every 20 sec for 30 mins in presence of NaCl by UV-Visible spectrophotometric method
pKi: −log10 of the molar value.
quantity: pKi

INSERT INTO assay_data (smiles_entry, measurement) VALUES
  ('CC(C)(C)OC(=O)N1CCC[C@H]1C(=O)NCc1ccc(C(=N)N)cc1', 4.92),
  ('N=C(N)c1ccc(CNC(=O)[C@@H]2CCCN2C(=O)C(F)F)cc1', 4.75),
  ('N=C(N)c1ccc(CNC(=O)[C@@H]2CCCN2C(N)=O)cc1', 4.23),
  ('N=C(N)c1ccc(CNC(=O)[C@@H]2CCCN2C(=O)CCc2ccccc2)cc1', 6.14);

A = CS(=O)(=O)N1CCC[C@H]1C(=O)NCc1ccc(C(=N)N)cc1
B = CC(C)(C)CC(=O)N1CCC[C@H]1C(=O)NCc1ccc(C(=N)N)cc1
Query: Of A and B , which carries the smaller reported pKi figure? Respond with the label that goes with your answer.
Reply: A
(A: 4.17, B: 5.38)

A = N=C(N)c1ccc(CNC(=O)[C@@H]2CCCN2S(=O)(=O)C(F)(F)F)cc1
B = N=C(N)c1ccc(CNC(=O)[C@@H]2CCCN2C(=O)OCc2ccccc2)cc1
Query: Name the one with the greater pKi value, either A or B as given. Respond with the label that goes with your answer.
Reply: B
(B: 5.40, A: 5.15)

A = CC(C)(C)NC(=O)N1CCC[C@H]1C(=O)NCc1ccc(C(=N)N)cc1
B = N=C(N)c1ccc(CNC(=O)[C@@H]2CCCN2C(=O)C(F)(F)F)cc1
C = N=C(N)c1ccc(CNC(=O)[C@@H]2CCCN2S(N)(=O)=O)cc1
D = CC(=O)N1CCC[C@H]1C(=O)NCc1ccc(C(=N)N)cc1
Query: Please order the records by their reported pKi, lowest number first. // format: requested-order list of labels
Reply: C, D, A, B

A = CCN1CCC[C@H]1C(=O)NCc1ccc(C(=N)N)cc1
B = N=C(N)c1ccc(CNC(=O)[C@@H]2CCCN2C(=O)NCc2ccccc2)cc1
Query: Name the one with the greater pKi value, either A or B as given. Respond with the label that goes with your answer.
Reply: B
(B: 4.84, A: 3.60)
